# System: Escherichia coli TOP10;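 note: peptides expressed intracellularly from a pBAD plasmid library in pooled LB shake-flask culture, induced with 0.3% L-arabinose, DNA abundance read by NGS, three biological replicates, DESeq2 with apeglm shrinkage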
# assay.info: shrunken log2 fold change of peptide-encoding DNA abundance (4.5 h post-induction vs induction); higher = less antimicrobial activity (less host growth inhibition)
# test.conditions: time post-induction: 4.5 h; library: site-saturation at positions 5, 18, 19, 20
Returns one of y or n; y when shrunken log2 fold change is >= -0.03.

chain: RRIRTRPPRLPRPRPRPSSSPRP
qualitative.label: n
//
chain: RRIRFRPPRLPRPRPRPNFQPRP
qualitative.label: n
//
chain: RRIRERPPRLPRPRPRPLMRPRP
qualitative.label: y
//
chain: RRIRTRPPRLPRPRPRPIFIPRP
qualitative.label: n
//
chain: RRIRVRPPRLPRPRPRPHLVPRP
qualitative.label: n
//
chain: RRIRLRPPRLPRPRPRPMPEPRP
qualitative.label: y
//
chain: RRIRQRPPRLPRPRPRPTRGPRP
qualitative.label: y
//
chain: RRIRHRPPRLPRPRPRPEYSPRP
qualitative.label: y
//
chain: RRIRIRPPRLPRPRPRPRYIPRP
qualitative.label: n
//
chain: RRIRMRPPRLPRPRPRPANSPRP
qualitative.label: y
//
chain: RRIRRRPPRLPRPRPRPEWMPRP
qualitative.label: y
//
chain: RRIRSRPPRLPRPRPRPQTDPRP
qualitative.label: n
//
chain: RRIRCRPPRLPRPRPRPCWQPRP
qualitative.label: y
//
chain: RRIRIRPPRLPRPRPRPSYIPRP
qualitative.label: n
//
chain: RRIRNRPPRLPRPRPRPSKQPRP
qualitative.label: y

The reported measurements were obtained from the supplement of paper PMC9112550.
